Listed below are compounds with Ki for 5-hydroxytryptamine receptor 2A (Homo sapiens), each taken from published literature.
READOUT LABEL: Ki (nM)

CCCN(CCC)C1CCc2cc(CS(=O)(=O)c3ccc(OC)cc3)ccc2C1 (centres undefined)	1000

[1] CCCCN1CCC(COC(=O)c2cc(Cl)c(N)c3c2OCCO3)CC1
[2] Cc1ccc(C)c(COc2ccc(C=NN=C(N)N)cc2)c1
Task: Task for the reader: decide whether 1 or 2 has the larger Ki. Your answer should be the label attached to the chosen record.
Output: 1

[A] CN(C)CCON/C(=C/C=C1C=CC(=O)C=C1)c1ccccc1F
[B] CCCc1cc(C(C)(C)C)ccc1Oc1cccc(C=NN=C(N)N)c1
[C] Nc1c(Cl)cc(-c2nn(C3CCN(CCc4ccccc4)CC3)c(=O)o2)c2c1OCCO2
[D] COc1cccc(C(O)C2CCN(CCn3c(=S)[nH]c4ccccc4c3=O)CC2)c1OC (centres undefined)
Task: Write the entries in order, lowest recorded Ki first. Hello, could you send the labels back in the order asked? Thank you.
Output: A, D, B, C
